measured_on: PARP5A (Homo sapiens (Human))
Sequence (O95271 1001-1327 limits assumed): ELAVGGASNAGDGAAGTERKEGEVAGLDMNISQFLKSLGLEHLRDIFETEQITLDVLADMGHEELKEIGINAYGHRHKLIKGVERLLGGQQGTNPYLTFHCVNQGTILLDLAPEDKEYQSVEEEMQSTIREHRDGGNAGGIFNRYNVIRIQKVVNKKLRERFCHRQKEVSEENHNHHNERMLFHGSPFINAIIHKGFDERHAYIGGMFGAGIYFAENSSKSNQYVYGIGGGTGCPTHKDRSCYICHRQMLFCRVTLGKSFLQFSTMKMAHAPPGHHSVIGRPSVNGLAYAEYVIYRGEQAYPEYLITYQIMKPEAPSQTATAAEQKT
measurement_name: pIC50
Scale: pIC50 equals -log10([C]), with [C] in mol/L.

Query: Entry `CCc1cc2ncc(CN3CCN(c4ccc(C(=O)NC5CC5)nc4)CC3)cc2[nH]c1=O` needs its pIC50 filled in; supply it.
Result: 5.22

---

assay_protocol: Pharmacokinetic test in rats
Format: in vivo, rat
condition_notes: Sprague-Dawley (SD), rat, iv; male SD rats, i.v. 2.5 mg/kg, plasma
Experimental: • 1.1 Experimental animals: male SD rats, about 220 g, 6-8 weeks old, 6 rats/compound, purchased from Chengdu Ddossy Experimental Animals Co., Ltd. • 1.2 Experimental design: on the day of the test, 6 SD rats were randomly grouped according to their body weight; the animals were fasted with water available for 12 to 14 h one day before the administration, and were fed 4 h after the administration. […]
measurement_name: clearance

Query: Query clearance for CCc1cc2ncc(CN3CCN(c4ccc(C(=O)NC5CC5)nc4)CC3)cc2[nH]c1=O [Compound 4]
Result: 0.896 mL/min/kg

---

assay_protocol: Pharmacokinetic test in rats
Format: in vivo, rat
condition_notes: Sprague-Dawley (SD), rat, po; male SD rats, i.g. 10 mg/kg, plasma
Method: • 1.1 Experimental animals: male SD rats, about 220 g, 6-8 weeks old, 6 rats/compound, purchased from Chengdu Ddossy Experimental Animals Co., Ltd. • 1.2 Experimental design: on the day of the test, 6 SD rats were randomly grouped according to their body weight; the animals were fasted with water available for 12 to 14 h one day before the administration, and were fed 4 h after the administration. […]
measurement_name: AUC(0-t) (µg·h/mL)
Record the value in µg·h/mL, omitting the unit from your answer.

Query: Provide AUC(0-t) value for the following compound: CCc1cc2ncc(CN3CCN(c4ccc(C(=O)NC5CC5)nc4)CC3)cc2[nH]c1=O [Compound 4]
Result: 184

---

measured_on: PARP15 (Homo sapiens (Human))
Sequence (Q460N3 whole entry): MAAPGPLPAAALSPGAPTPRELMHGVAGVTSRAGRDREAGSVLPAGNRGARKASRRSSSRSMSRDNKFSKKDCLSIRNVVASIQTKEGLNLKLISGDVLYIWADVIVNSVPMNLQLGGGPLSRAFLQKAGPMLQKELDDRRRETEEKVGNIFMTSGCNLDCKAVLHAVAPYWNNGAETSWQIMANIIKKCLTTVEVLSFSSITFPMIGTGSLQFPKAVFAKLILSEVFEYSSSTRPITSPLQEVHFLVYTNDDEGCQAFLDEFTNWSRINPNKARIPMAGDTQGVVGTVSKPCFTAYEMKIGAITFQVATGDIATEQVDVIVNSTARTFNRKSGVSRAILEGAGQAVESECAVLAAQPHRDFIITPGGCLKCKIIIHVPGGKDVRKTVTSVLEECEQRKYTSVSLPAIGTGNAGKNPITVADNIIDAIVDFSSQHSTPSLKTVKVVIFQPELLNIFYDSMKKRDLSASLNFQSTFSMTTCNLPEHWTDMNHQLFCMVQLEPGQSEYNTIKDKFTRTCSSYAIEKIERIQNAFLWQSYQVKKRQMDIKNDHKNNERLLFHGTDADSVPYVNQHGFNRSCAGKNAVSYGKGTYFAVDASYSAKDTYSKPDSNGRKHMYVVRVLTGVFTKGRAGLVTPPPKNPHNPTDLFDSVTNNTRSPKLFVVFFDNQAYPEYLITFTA
measurement_name: pIC50
A value of pIC50 is the negative decimal logarithm of a concentration given in moles per litre.

Query: Supply measured pIC50 of `CCc1cc2ncc(CN3CCN(c4ccc(C(=O)NC5CC5)nc4)CC3)cc2[nH]c1=O` in your reply.
Result: 5.37

---

assay_protocol: Pharmacokinetic test in rats
Format: in vivo, rat
condition_notes: Sprague-Dawley (SD), rat, iv; male SD rats, i.v. 2.5 mg/kg, plasma
measurement_name: AUC(0-t)

Query: Give the reported AUC(0-t) for this molecule. CCc1cc2ncc(CN3CCN(c4ccc(C(=O)NC5CC5)nc4)CC3)cc2[nH]c1=O [Compound 4]
Result: 46600 ng·h/mL

---

measured_on: PARP5B (Homo sapiens (Human))
Sequence (Q9H2K2 667-1166 limits assumed): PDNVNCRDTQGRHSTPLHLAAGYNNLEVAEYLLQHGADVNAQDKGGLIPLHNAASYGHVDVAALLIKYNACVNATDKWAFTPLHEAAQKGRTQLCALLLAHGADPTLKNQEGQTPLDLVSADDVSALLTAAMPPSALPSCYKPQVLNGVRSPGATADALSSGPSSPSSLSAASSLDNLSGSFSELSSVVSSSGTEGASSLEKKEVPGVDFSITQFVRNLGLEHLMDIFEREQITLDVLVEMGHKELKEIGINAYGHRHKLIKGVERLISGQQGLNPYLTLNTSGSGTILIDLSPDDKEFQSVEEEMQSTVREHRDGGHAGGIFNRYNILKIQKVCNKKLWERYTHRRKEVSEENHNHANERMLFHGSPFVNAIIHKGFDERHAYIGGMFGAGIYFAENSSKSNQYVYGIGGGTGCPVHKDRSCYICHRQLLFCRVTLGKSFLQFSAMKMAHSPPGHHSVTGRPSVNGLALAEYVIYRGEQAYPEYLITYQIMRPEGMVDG
measurement_name: pIC50
Kindly note that pIC50 refers to -log10 of the concentration in mol/L and answer with the value alone.

Query: State pIC50 on PARP5B (Homo sapiens (Human)). Entry: `CCc1cc2ncc(CN3CCN(c4ccc(C(=O)NC5CC5)nc4)CC3)cc2[nH]c1=O`
Result: 6.24

---

measured_on: PARP-1 enzyme (Homo sapiens (Human), UniProt P09874)
Sequence (P09874 whole entry): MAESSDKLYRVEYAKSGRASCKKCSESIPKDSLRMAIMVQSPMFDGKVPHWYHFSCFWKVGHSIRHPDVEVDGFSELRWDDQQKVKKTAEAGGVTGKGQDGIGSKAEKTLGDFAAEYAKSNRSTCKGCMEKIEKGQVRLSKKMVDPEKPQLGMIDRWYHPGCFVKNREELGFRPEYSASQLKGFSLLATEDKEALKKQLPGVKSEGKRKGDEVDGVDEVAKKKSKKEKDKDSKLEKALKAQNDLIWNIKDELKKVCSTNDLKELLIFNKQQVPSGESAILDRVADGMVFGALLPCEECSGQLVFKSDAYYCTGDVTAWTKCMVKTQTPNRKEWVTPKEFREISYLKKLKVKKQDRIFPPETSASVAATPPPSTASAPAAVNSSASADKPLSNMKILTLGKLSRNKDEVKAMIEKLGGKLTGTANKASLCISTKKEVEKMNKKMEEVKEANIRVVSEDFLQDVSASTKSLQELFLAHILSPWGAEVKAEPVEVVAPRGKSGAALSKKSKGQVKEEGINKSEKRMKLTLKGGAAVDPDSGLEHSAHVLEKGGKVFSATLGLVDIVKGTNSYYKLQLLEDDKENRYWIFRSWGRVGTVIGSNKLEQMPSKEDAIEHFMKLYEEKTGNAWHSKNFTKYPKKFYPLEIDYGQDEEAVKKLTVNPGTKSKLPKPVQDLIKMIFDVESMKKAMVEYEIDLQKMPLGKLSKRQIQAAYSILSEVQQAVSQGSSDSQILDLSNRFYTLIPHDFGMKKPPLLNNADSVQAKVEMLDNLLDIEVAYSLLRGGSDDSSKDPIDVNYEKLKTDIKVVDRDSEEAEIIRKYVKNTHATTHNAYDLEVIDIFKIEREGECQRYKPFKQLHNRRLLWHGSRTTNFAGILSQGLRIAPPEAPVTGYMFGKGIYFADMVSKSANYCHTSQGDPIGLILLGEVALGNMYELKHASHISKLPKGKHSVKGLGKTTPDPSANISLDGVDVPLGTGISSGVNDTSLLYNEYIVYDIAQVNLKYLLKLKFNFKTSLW
measurement_name: pIC50
For clarity, pIC50 is expressed as the negative log10 of concentration in mol/L.

[
  {
    "compound": "CCc1cc2ncc(CN3CCN(c4ccc(Nc5ccn(C)n5)nc4)CC3)cc2[nH]c1=O",
    "measurement_name": "pIC50",
    "recorded_result": 8.70
  },
  {
    "compound": "CCc1cc2ncc(CN3CCN(c4ccc(-c5nnc(C)[nH]5)nc4)CC3)cc2[nH]c1=O",
    "measurement_name": "pIC50",
    "recorded_result": 9.17
  },
  {
    "compound": "CCc1cc2ncc(CN3CCN(c4ccc(C(=O)N[C@@H]5C[C@@H]5F)nc4)CC3)cc2[nH]c1=O",
    "measurement_name": "pIC50",
    "recorded_result": 9.27
  }
]

Query: Answer with pIC50 of `CCc1cc2ncc(CN3CCN(c4ccc(C(=O)NC56CC(C5)C6)nc4)CC3)cc2[nH]c1=O` measured for PARP-1 enzyme (Homo sapiens (Human), UniProt P09874).
Result: 9.11

Query: Fill in: pIC50 on PARP-1 enzyme (Homo sapiens (Human), UniProt P09874), entry CCc1cc2ncc(CN3CCN(c4ccc(NC(=O)[C@H]5CC5(F)F)nc4)CC3)cc2[nH]c1=O (single isomer, unassigned)
Result: 9.18

Query: Write down measured pIC50 (PARP-1 enzyme (Homo sapiens (Human), UniProt P09874)) for this compound. `CCc1cc2ncc(CN3CCN(c4cn5cc(C)nc5cn4)CC3)cc2[nH]c1=O`
Result: 9.19

Query: Specify pIC50 for `CCc1cc2ncc(CN3CCN(c4ccc(C(=O)Nc5ccn(C)n5)nc4)CC3)cc2[nH]c1=O` , system PARP-1 enzyme (Homo sapiens (Human), UniProt P09874).
Result: 9.46

---

measured_on: PARP-1 enzyme (Homo sapiens (Human))
assay_protocol: PARP1 enzyme activity test (BPS Bioscience chemiluminescence kit)
Assay type: biochemical
measurement_name: pIC50
Notebook: values listed as pIC50 are -log10 of the concentration (mol/L).

Example results:
[
  {
    "smiles_structure": "CCc1cc2ncc(CN3CCN(c4ccc5nc(C)cn5n4)CC3)cc2[nH]c1=O",
    "pIC50": 9.12
  },
  {
    "smiles_structure": "CCc1cc2ncc(CN3CCN(c4cn5cc(C(F)F)nc5cn4)CC3)cc2[nH]c1=O",
    "pIC50": 9.14
  },
  {
    "smiles_structure": "CCc1cc2ncc(CN3CCN(c4ccc(NC(=O)c5cnn(C)c5)nc4)CC3)cc2[nH]c1=O",
    "pIC50": 9.13
  }
]

Query: Output pIC50 of `CCc1cc2ncc(CN3CCN(c4ccc(C(=O)NC5CC6(CCC6)C5)nc4)CC3)cc2[nH]c1=O`
Result: 9.15

Query: Entry `CCc1cc2ncc(CN3CCN(c4ccc(C(=O)NC5CCC5)nc4)CC3)cc2[nH]c1=O` needs its pIC50 filled in; supply it.
Result: 9.25

Query: Provide one value: measured pIC50 of `CCc1cc2ncc(CN3CCN(c4cnc(C(=O)NC)cn4)CC3)cc2[nH]c1=O`
Result: 8.70

---

Quick note: these are IC50 numbers for system: UniProt P09874
Record the value in nM, omitting the unit from your answer.

Answered examples (5):
[
  {
    "smiles_structure": "CCc1cc2ncc(CN3CCN(c4ccc(C(=O)NCC5CC5)nc4)CC3)cc2[nH]c1=O",
    "measurement_unit": "nM",
    "recorded_result": 0.61
  },
  {
    "smiles_structure": "CCc1cc2ncc(CN3CCN(c4ccc(NC(=O)OC5CC5)nc4)CC3)cc2[nH]c1=O",
    "measurement_unit": "nM",
    "recorded_result": 0.96
  },
  {
    "smiles_structure": "CCc1cc2ncc(CN3CCN(c4ccc(C(=O)NC5CCN(C)CC5)nc4)CC3)cc2[nH]c1=O",
    "measurement_unit": "nM",
    "recorded_result": 0.35
  },
  {
    "smiles_structure": "CCc1cc2ncc(CN3CCN(c4ccc(C(=O)NC5CN(c6ccccc6)C5)nc4)CC3)cc2[nH]c1=O",
    "measurement_unit": "nM",
    "recorded_result": 0.56
  },
  {
    "smiles_structure": "CCc1cc2ncc(CN3CCN(c4ccc(C(=O)N[C@H]5C[C@H]5F)nc4)CC3)cc2[nH]c1=O",
    "measurement_unit": "nM",
    "recorded_result": 0.84
  }
]

Query: Please look at `CCc1cc2ncc(CN3CCN(c4cn5cc(C(F)(F)F)nc5cn4)CC3)cc2[nH]c1=O` and tell me its recorded IC50 on UniProt P09874.
Result: 0.93

Query: # assay system UniProt P09874: give IC50 of `CCc1cc2ncc(CN3CCN(c4ccc(C(=O)N[C@@H]5CCNC5)nc4)CC3)cc2[nH]c1=O`
Result: 0.33

Query: Write down the reported IC50 (system: UniProt P09874) of `CCc1cc2ncc(CN3CCN(c4ccc(C(=O)NCCOC)nc4)CC3)cc2[nH]c1=O`
Result: 0.73

---

Record type: IC50 measurement. Applies to: PARP-1 enzyme (Homo sapiens (Human))
Give just the number in nM; leave the unit off.

Solved cases (2 shown):
[
  {
    "smiles_structure": "CCc1cc2ncc(CN3CCN(c4ccc(NC(=O)C5CC(F)(F)C5)nc4)CC3)cc2[nH]c1=O",
    "measured_on": "PARP-1 enzyme (Homo sapiens (Human))",
    "measurement_unit": "nM",
    "IC50": 0.48
  },
  {
    "smiles_structure": "CCc1cc2ncc(CN3CCN(c4ccc(C(=O)NC5CCNCC5)nc4)CC3)cc2[nH]c1=O",
    "measured_on": "PARP-1 enzyme (Homo sapiens (Human))",
    "measurement_unit": "nM",
    "IC50": 0.51
  }
]

Here is the next item to consider.
Query: Under PARP-1 enzyme (Homo sapiens (Human)), report IC50 for `CCc1cc2ncc(CN3CCN(c4cnc(C(=O)NC)c(F)c4)CC3)cc2[nH]c1=O`
Result: 0.56
